Ref: patent US20150110794A1

molecular target: T1, AD4 polypeptide (cloned AD4 fragment of CMV AD169 envelope glycoprotein B) (human cytomegalovirus strain AD169, UniProt P06473 112-438); experiment: SPR (Biacore T200), antibody captured on anti-human IgG CM5 chip, AD4 polypeptide as analyte, 1:1 model
T1 construct: also called antigenic domain 4
MEASUREMENT_TYPE: pKd
FYI, pKd means -log10 of a concentration in mol per litre.

>  <BINDER>
C15 (antibody, V domains shown, Human IgG, transiently expressed in HEK293) VH: EMQLLESGGGLVQPGGSLRVSCAASGFTFSSHAMSWVRQAPGKGLEWVSSISRSGDNTFYADSVKGRFTISRDNIKSTVYLQMNSLRAEDTAVYFCASRYTEGDSVWYFDVWGRGTLVTVSS VL: EVVLTQSPATLSVSAGDRATLSCRASQSVSRDLAWYQQKPGQAPRLLIYGASTRATDIPVRFSGSGSGTEFSLTISSLQSEDFAVYYCHQYKHWPRTFGQGTKVEIKR

>  <pKd>
8.19

$$$$

Quick note, pKd for C11 (antibody, V domains shown, Human IgG, transiently expressed in HEK293) VH: EVQLLESGGGLIQPGGSLRLSCVASGFTFTRHAINWVRQAPGKGLEWVSAISGSGSSTYYADSVKGRFTISRDNAKNTLYLQMNRLRVEDTAVYYCAKDKDYGMVAATPDAFDIWGQGTMVTVSS VL: QSVLTQPPSVSAAPGQKVTISCSGSRSNIAKNYVYWYQQLPGTAPKLLIYDTNKRPSGIPDRFSGSKSGTSATLAITGLQTGDEADYYCGTWDSSLKTAIFFGGGTTVTVLG landed at 8.25

Memo: C8 (antibody, V domains shown, Human IgG, transiently expressed in HEK293) VH: QVQLQESGPGLVKPLETLSLTCTVSGGSISSGSFYWTWIRQHPGKGLEWIGYIHSSGTTYYNPSLKSRLNISRDTSKNQFTLKLSSVTAADTAVYYCAKEIIQWPRRWFDPWGQGTLVTVSS VL: QSVLTQPPSVSAAPGQKVTISCSGSRSNIGKNYVYWYQQLPGTAPKLLIYDNNKRPSGIPDRFSGSKSGTSATLAITGLQTGDEADYYCGTWDSSLKTGIFFGGGTKLTVLG , reported pKd: 8.35

Note to self: pKd recorded for C9 (antibody, V domains shown, Human IgG, transiently expressed in HEK293) VH: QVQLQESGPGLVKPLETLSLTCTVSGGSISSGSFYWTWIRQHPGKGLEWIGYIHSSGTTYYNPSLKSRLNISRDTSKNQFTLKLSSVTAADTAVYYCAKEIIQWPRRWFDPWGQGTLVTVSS VL: QSVLTQPPSVSAAPGQKVTISCSGSRSNIAKNYVYWYQQLPGTAPKLLIYDTNKRPSGIPDRFSGSKSGTSATLAITGLQTGDEADYYCGTWDSSLKTAIFFGGGTTVTVLG was 8.40

For C12 (antibody, V domains shown, Human IgG, transiently expressed in HEK293) VH: QVQLQESGPGLVKPLETLSLTCTVSGGSIRGGDYWWTWVRQPPGKGLEWLGYIYRTGSTYYNPSLKSRLTISLDTSKNHFSLKLASATAADTAVYYCARDPGDDSGGNSGLDYWGQGVLVSVSS VL: QSMLTQPPSVSAAPGQKVIISCSGSSSNIGNNFVNWYQKFPGTAPKLLIYDNDKRPSGIPDRFSGSKSGTSATLGITGLQTGDEAEYYCGTWDSSLTAGVFGGGTTLTVLG the binder record lists pKd as 8.49
